test: Half-life of the conjugate when treated with 10% foetal bovine serum for enzymatic stability; format: ADME, Bos taurus; conditions: cattle
Non-standard residues stand in square brackets, D forms with d. Residues, ends and D or L forms follow the SMILES beside them. hLys = NCCCCC[C@H](N)C(=O)O
Item-by-item account of half-life

NCCCCC[C@H](NC(=O)[C@H](CCCCN)NC(=O)[C@H](CCCCN)NC(=O)[C@H](CCCCCN)NC(=O)[C@H](CCCCN)NC(=O)[C@@H](N)CCCCN)C(=O)N[C@@H](CCCCN)C(=O)N[C@@H](CCCCN)C(=O)N[C@H](C=O)CCCCN (H-KK[hLys]KK[hLys]KKK-aldehyde)
> 168 h

# context switch: different molecule, same half-life
query: Could you share which half-life value was measured for NCCCC[C@@H](C=O)NC(=O)[C@@H](CCCCN)NC(=O)[C@@H](CCCCN)NC(=O)[C@@H](CCCCN)NC(=O)[C@@H](CCCCN)NC(=O)[C@@H](CCCCN)NC(=O)[C@@H](CCCCN)NC(=O)[C@@H](CCCCN)NC(=O)[C@H](N)CCCCN ?
result: > 168 h

----------
experiment: Half-life of the conjugate when treated with 10% foetal bovine serum for enzymatic stability; No degradation observed within the period of time indicated; type: ADME, Bos taurus; details: cattle
measured.endpoint: half-life

query: Requested read-out: half-life. Entry: NCCCC[C@@H](C=O)NC(=O)[C@H](CCCCN)NC(=O)[C@H](CCCCN)NC(=O)[C@H](CCCCN)NC(=O)[C@H](CCCCN)NC(=O)[C@H](CCCCN)NC(=O)[C@H](CCCCN)NC(=O)[C@H](CCCCN)NC(=O)[C@@H](N)CCCCN
result: > 7 days

----------
assay: Half-life of the conjugate when treated with 10% foetal bovine serum for enzymatic stability; format: ADME, Bos taurus; conditions: cattle
Non-standard residues stand in square brackets, D forms with d. Residues, ends and D or L forms follow the SMILES beside them. Lys(Me2) = CN(C)CCCC[C@H](N)C(=O)O
Recorded half-life, one value per entry.

Below, 3 molecules whose answers are already recorded.
NCCCC[C@@H](C=O)NC(=O)[C@H](CCCCN)NC(=O)[C@H](CCCCN)NC(=O)[C@H](CCCN=C(N)N)NC(=O)[C@H](CCCCN)NC(=O)[C@H](CCCCN)NC(=O)[C@H](CCCN=C(N)N)NC(=O)[C@H](CCCCN)NC(=O)[C@@H](N)CCCCN (H-KKRKKRKKK-aldehyde)
90 h
CN(C)CCCC[C@H](NC(=O)[C@H](CCCCN(C)C)NC(=O)[C@H](CCCCN(C)C)NC(=O)[C@H](CCCCN(C)C)NC(=O)[C@H](CCCCN(C)C)NC(=O)[C@H](CCCCN(C)C)NC(=O)[C@H](CCCCN(C)C)NC(=O)[C@@H](N)CCCCN(C)C)C(=O)N[C@H](C=O)CCCCN (H-[Lys(Me2)][Lys(Me2)][Lys(Me2)][Lys(Me2)][Lys(Me2)][Lys(Me2)][Lys(Me2)][Lys(Me2)]K-aldehyde)
> 168 h
NCCCC[C@@H](C=O)NOC(=O)C(CCCN)NC(=O)[C@H](CCCCN)NOC(=O)C(CCCN)NC(=O)[C@H](CCCCN)NOC(=O)C(CCCN)NC(=O)[C@H](CCCCN)NOC(=O)C(CCCN)NC(=O)[C@@H](N)CCCCN (some centres undefined)
> 168 h

// next entry
query: Entry NCCCC[C@@H](C=O)NC(=O)[C@H](CCCCN)NC(=O)[C@@H](CCCCN)NC(=O)[C@H](CCCCN)NC(=O)[C@H](CCCCN)NC(=O)[C@@H](CCCCN)NC(=O)[C@H](CCCCN)NC(=O)[C@@H](N)CCCCN : reported half-life = ?
result: > 168 h
